Every entry's value here was drawn from ChEMBL document CHEMBL1201862.

# GI50 per record follows
Test system: HCT-15
outcome_measure: GI50 (µM)

{"compound": "O=C[C@]12CC=C3OC4OC5(CCCCC5)OC4[C@H]3[C@H]1C(=O)C=CC2=O (some centres not stated)", "relation": "=", "result": 18.7}
{"compound": "CC(=O)CCC(=O)C(=[N+]=[N-])S(=O)(=O)c1ccccc1", "relation": ">", "result": 100}
{"compound": "O=P(c1ccccc1)(c1ccccc1)C1CC=C2CCCCCC2C1 (configuration not stated)", "relation": "=", "result": 37.2}
{"compound": "CC1CC2C(=O)N(c3ccccc3)C(=O)C2c2c1c1ccccc1n2Cc1ccccc1 (configuration not stated)", "relation": "=", "result": 35.1}
{"compound": "COc1cc(/C=C/C(=O)O)ccc1OS(=O)(=O)O", "relation": ">", "result": 100}
{"compound": "COc1ccc2nc3ccccc3c(NCCN(C)CCCl)c2c1", "relation": "=", "result": 0.515}
{"compound": "FC(F)(F)c1nc(-c2ccccc2Cl)[nH]c1C(F)(F)F", "relation": "=", "result": 0.875}
{"compound": "O=c1c2cc(Cl)ccc2n2nnc3ccc(NCCNCCO)c1c32", "relation": "=", "result": 0.718}
{"compound": "COc1cccc2cc(C(=O)Nc3ccccn3)c(=N)oc12", "relation": ">", "result": 100}
{"compound": "CCN(CC)C(=S)N/N=C/c1cc(OC)ccc1O", "relation": "=", "result": 1.36}
{"compound": "O=[N+]([O-])c1cccc(C2=NN(c3ccccc3)C[N+](c3ccc(Br)cc3)=N2)c1", "relation": ">", "result": 100}
{"compound": "O=C1c2[nH]c3ccc(Br)cc3c2CCN1Cc1ccc(Cl)cc1", "relation": "=", "result": 3.99}
{"compound": "CN(C)C(=S)/N=c1\\ss/c(=N\\c2ccccc2)n1-c1ccccc1", "relation": "=", "result": 23.2}
{"compound": "CC(=O)OCC1OC(n2cnc(C(N)=S)c2N)C(OC(C)=O)C1OC(C)=O (configuration not stated)", "relation": ">", "result": 100}
{"compound": "CC(C)C(Nc1ncnc2nc[nH]c12)C(=O)O (configuration not stated)", "relation": ">", "result": 100}
{"compound": "O=C(/C(=N/Nc1cn[nH]c(=O)c1Cl)c1ccccc1)c1ccccc1", "relation": "=", "result": 12.6}
{"compound": "Cc1c(C(=O)/C=C/c2ccc(Cl)cc2)[n+]([O-])c2ccccc2[n+]1[O-]", "relation": "=", "result": 9.23}
{"compound": "Clc1ccc(Nc2ncco2)cc1Cl", "relation": ">", "result": 10}
{"compound": "N#CCCN(CCC#N)c1ccc(/C=N\\c2ccc(F)cc2)cc1", "relation": "=", "result": 1.15}
{"compound": "O=C1Oc2ccccc2C(=O)/C1=C/N1C(=O)/C(=C/c2ccc3c(c2)OCO3)SC1=S", "relation": "=", "result": 15.8}
{"compound": "O=C1CC2SC(COCc3ccccc3)(CCN2Cc2ccccc2)C1 (configuration not stated)", "relation": "=", "result": 40.6}
{"compound": "C=C(c1nc2ccc(Cl)cc2[nH]c1=O)C(O)c1ccc(C(O)C(=O)c2nc3ccc(Cl)cc3[nH]c2=O)cc1 (configuration not stated)", "relation": "=", "result": 74.5}

###

Reported GI50 values for a set of molecules
Test system: SW-620
Test: NCI tumour cell line growth inhibition, 48 h
Active and inactive are the calls of the source. No stated cut-off is given here; in the data, active = GI50 up to about 1.1 µM and inactive = higher.

{"molecule": "NC(=O)C1CCCN1C(=O)N(CCCl)N=O (stereo unspecified)", "GI50": "> 100 µM (inactive)"}
{"molecule": "CCOC(=O)/C(Br)=C1\\OC(=O)c2ccccc2-c2ccccc21", "GI50": "42.5 µM (inactive)"}
{"molecule": "CC1(C)C(=O)C(=Cc2ccco2)C1=O", "GI50": "> 100 µM (inactive)"}
{"molecule": "COc1cc(/C=C/c2ccc(OC)c(O)c2)cc(OC)c1", "GI50": "3.82 µM (inactive)"}
{"molecule": "COc1ccc(N2C(=O)C(=O)N(C)C2=O)c2ccccc12", "GI50": "> 10 µM (inactive)"}
{"molecule": "Clc1ccc(-c2nnc(-c3c(Cl)c(Cl)c(Cl)c(Cl)c3-c3nc4ccccc4[nH]3)o2)cc1", "GI50": "> 100 µM (inactive)"}
{"molecule": "CC1=C(C)C(=O)OC(C(C)(O)C2(O)CCC3(O)C4CC(Cl)C5(O)C(O)C=CC(=O)C5(C)C4CCC32C)C1 (stereo unspecified)", "GI50": "21.3 µM (inactive)"}
{"molecule": "O=C1C(CN2CCCCC2)CCC1CN1CCCCC1 (stereo unspecified)", "GI50": "6.37 µM (inactive)"}
{"molecule": "COC12C=CC(CC1)C(C)(C)C2OS(C)(=O)=O (stereo unspecified)", "GI50": "> 100 µM (inactive)"}
{"molecule": "C/C(CCOC1CCCCO1)=C(\\C)[Si](C)(C)C (stereo unspecified)", "GI50": "> 100 µM (inactive)"}
{"molecule": "Cc1ccc(/N=C2/S/C(=C3/CCC=C3N3CCOCC3)N(c3ccc(Cl)cc3)/C2=N/c2ccc(C)cc2)cc1", "GI50": "> 100 µM (inactive)"}

###

Tested on: MDA-MB-231
Assay: NCI tumour cell line growth inhibition, 48 h
The source made the active and inactive calls. Cut-off read from the data, not from the text of the source: active = GI50 up to about 1.1 µM and inactive = higher.
Below: a set of entries, each annotated with reported GI50.

{"compound": "CC(=O)CCC(=O)C(=[N+]=[N-])S(=O)(=O)c1ccccc1", "system_tested": "MDA-MB-231", "GI50": "> 100 µM (inactive)"}
{"compound": "CCCCSC1=N/C(=C\\c2ccccc2O)C(=O)N1", "system_tested": "MDA-MB-231", "GI50": "34 µM (inactive)"}
{"compound": "CCOC(=O)/C(C)=C\\[C@@]1(C)O[C@@H](C)[C@@](C)(OC(C)=O)[C@@H]1OC(C)=O", "system_tested": "MDA-MB-231", "GI50": "57.5 µM (inactive)"}
{"compound": "COc1ccc(N2C(=O)C(=O)C3(CCCCC3)C2=O)c2ccccc12", "system_tested": "MDA-MB-231", "GI50": "> 10 µM (inactive)"}
{"compound": "O=C(Cc1ccc([N+](=O)[O-])cc1)OCC#CCOC(=O)Cc1ccc([N+](=O)[O-])cc1", "system_tested": "MDA-MB-231", "GI50": "> 10 µM (inactive)"}
{"compound": "CC(C)(CC(O)C#N)/[N+]([O-])=[N+](\\[O-])C(C)(C)CC(O)C#N (stereo unspecified)", "system_tested": "MDA-MB-231", "GI50": "23.9 µM (inactive)"}
{"compound": "C[Si](C)(C)C1=C([Si](C)(C)C)C(Cl)(Cl)C1=O", "system_tested": "MDA-MB-231", "GI50": "2.8 µM (inactive)"}
{"compound": "CCN(CC)C(=S)SS(=O)(=O)c1ccc(Cl)cc1", "system_tested": "MDA-MB-231", "GI50": "34.9 µM (inactive)"}
{"compound": "CC(C)=NN/C(=N\\c1ccc(Cl)cc1)NS(=O)(=O)c1ccc(Oc2cccc(Cl)c2C#N)cc1", "system_tested": "MDA-MB-231", "GI50": "> 100 µM (inactive)"}
{"compound": "CCC(=O)Nc1cccc(/N=C/c2ccc(OC(=O)/C=C\\c3ccccc3)cc2)c1", "system_tested": "MDA-MB-231", "GI50": "73.3 µM (inactive)"}
{"compound": "N#CC12CC=C(c3ccccc3)N=C1NC(c1ccccc1)=CC2 (stereo unspecified)", "system_tested": "MDA-MB-231", "GI50": "> 100 µM (inactive)"}

###

Test system: T47D
Test: NCI tumour cell line growth inhibition, 48 h
The source made the active and inactive calls. Rule as the data show it: active = GI50 up to about 1.1 µM and inactive = higher.
Classes used: 1.0 (active), 0.0 (inactive)

{"compound": "CCOC(=O)c1cc2c3c(c(C(C)=O)c(OC)c2[nH]1)N(C(=O)CC)CC3", "system_tested": "T47D", "assigned_class": 0.0}
{"compound": "C[Si](C)(C)C1=C([Si](C)(C)C)C(Cl)(Cl)C1=O", "system_tested": "T47D", "assigned_class": 0.0}
{"compound": "CC(C)C1C(=O)N2CCCC2C2(O)OC(NC(=O)C3C=C4c5cccc6[nH]cc(c56)CC4N(C)C3)(C(C)C)C(=O)N12 (stereo not given)", "system_tested": "T47D", "assigned_class": 0.0}
{"compound": "O=C1c2ccccc2C(=O)c2c1oc(=O)c1ccccc21", "system_tested": "T47D", "assigned_class": 0.0}
{"compound": "CC(C)[S+]1C2=C(CC(C)(C)CC2=O)[N-]c2ccccc21 (stereo not given)", "system_tested": "T47D", "assigned_class": 0.0}
{"compound": "COc1ccc(CCNC(=S)NC=C2C(=O)c3ccccc3C2=O)cc1OC", "system_tested": "T47D", "assigned_class": 0.0}
{"compound": "CCCCCCCCCCNC(=O)CCC(NC(=O)c1ccc(N(C)Cc2cnc3nc(N)nc(N)c3n2)cc1)C(=O)NCCCCCCCCCC (stereo not given)", "system_tested": "T47D", "assigned_class": 0.0}
{"compound": "CCN(CC)c1ccc(/C=c2\\nc(-c3ccccc3)n3c2nc2ccccc23)cc1", "system_tested": "T47D", "assigned_class": 1.0}
{"compound": "CCC(=O)OC1CCn2c1nc1c2C(=O)C(C)=C(N2CC2)C1=O (stereo not given)", "system_tested": "T47D", "assigned_class": 0.0}
{"compound": "c1ccc(CNc2c3c(nc4ccccc24)CCC3)cc1", "system_tested": "T47D", "assigned_class": 0.0}
